Target: N-domain fragment of calmodulin (CaMN, residues 1-75) (paramecium, UniProt P07463 2-76)
Assay: other fluorescence titration
pKd: −log10 of the molar value.
measurement-name: pKd

Request: Request the reported pKd associated with KRKQEEVSAIVIQRAYRRYLLKQKVKK (domain or fragment) [NaV1.2 IQ biosensor (rat NaV1.2 residues 1901-1927 flanked by YFP and CFP)]
Result: < 4.00
